# credit: paper PMC1807978

Biological target: 4bFH (4bZf-M.HpaII F35H) (synthetic zinc finger; prokaryotic Mtase)
Experiment: EMSA
endpoint: Kd (nM)
// note: answer is a bare numeric in nM

If you can, please state the reported Kd value of TGGCCACGCCACTCCCCAGGCTCCATTCCAGGCCGGCGCAATGCTAGACTCGACGCGGCGCTCGTTGCCA (double strand) [Tb/c] .
38
